# ASSAYED SYSTEM: SMARCA2 (Homo sapiens, UniProt P51531)
# Sequence (P51531 whole entry): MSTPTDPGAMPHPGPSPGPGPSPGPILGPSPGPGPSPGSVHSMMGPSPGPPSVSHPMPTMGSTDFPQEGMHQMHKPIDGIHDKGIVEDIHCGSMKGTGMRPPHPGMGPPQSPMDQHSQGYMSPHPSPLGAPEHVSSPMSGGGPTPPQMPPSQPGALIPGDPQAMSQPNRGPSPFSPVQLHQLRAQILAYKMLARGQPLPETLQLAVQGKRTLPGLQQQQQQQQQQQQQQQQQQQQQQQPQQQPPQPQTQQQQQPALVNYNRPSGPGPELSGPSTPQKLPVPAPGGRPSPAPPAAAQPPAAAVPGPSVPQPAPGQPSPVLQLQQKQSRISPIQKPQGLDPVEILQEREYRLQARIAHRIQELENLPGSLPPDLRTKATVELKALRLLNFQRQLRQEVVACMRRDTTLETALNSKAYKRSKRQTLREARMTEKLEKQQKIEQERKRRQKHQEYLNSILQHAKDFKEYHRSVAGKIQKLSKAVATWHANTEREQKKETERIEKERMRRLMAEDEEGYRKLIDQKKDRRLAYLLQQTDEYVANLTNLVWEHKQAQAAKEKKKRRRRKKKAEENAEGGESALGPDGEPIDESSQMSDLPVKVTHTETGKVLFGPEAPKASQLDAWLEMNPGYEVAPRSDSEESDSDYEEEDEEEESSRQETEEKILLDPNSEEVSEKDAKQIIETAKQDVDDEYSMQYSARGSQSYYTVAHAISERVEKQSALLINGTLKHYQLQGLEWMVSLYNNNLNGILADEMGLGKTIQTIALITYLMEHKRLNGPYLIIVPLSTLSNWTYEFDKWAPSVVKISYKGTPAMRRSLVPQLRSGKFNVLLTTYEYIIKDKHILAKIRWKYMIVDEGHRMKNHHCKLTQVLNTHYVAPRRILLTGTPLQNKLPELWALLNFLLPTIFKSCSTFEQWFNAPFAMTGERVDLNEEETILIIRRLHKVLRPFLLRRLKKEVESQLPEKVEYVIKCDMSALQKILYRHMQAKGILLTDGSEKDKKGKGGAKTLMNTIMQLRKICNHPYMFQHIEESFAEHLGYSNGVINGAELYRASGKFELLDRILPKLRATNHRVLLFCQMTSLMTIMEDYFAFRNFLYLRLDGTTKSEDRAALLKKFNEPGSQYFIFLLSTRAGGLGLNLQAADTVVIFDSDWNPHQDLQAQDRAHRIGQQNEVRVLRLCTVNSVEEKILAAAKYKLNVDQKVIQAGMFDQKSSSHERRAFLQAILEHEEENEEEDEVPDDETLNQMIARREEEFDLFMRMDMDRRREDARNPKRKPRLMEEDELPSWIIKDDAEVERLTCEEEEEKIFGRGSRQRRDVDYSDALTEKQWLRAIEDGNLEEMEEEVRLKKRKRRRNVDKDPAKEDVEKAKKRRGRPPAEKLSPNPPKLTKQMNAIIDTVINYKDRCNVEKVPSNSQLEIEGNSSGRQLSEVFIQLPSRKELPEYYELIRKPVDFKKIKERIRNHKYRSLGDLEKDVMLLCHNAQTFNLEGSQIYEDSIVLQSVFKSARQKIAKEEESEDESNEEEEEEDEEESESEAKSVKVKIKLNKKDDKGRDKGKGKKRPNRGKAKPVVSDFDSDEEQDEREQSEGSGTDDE
# PROTOCOL DETAILS: MSD SMARCA2 degradation in A549 cell line
# Format: cell-based
# EXPERIMENTAL SETUP: A549, A549 cells, 24 h
Known Dmax of a selection of molecules

Some solved entries appear below for comparison.
[[record]]
molecule = "Cc1ncsc1-c1ccc(CNC(=O)[C@@H]2C[C@@H](O)CN2C(=O)[C@@H](NC(=O)[C@H]2CC[C@H](N(C)Cc3cnc(N4C5CCC4CN(c4cc(-c6ccccc6O)nnc4N)C5)nc3)CC2)C(C)(C)C)cc1 [I-372]"
observed_property = "Dmax"
result = "50 to 70%"

[[record]]
molecule = "Cc1ncsc1-c1ccc(CNC(=O)[C@@H]2C[C@@H](O)CN2C(=O)[C@@H](NC(=O)CCCN2CCC(c3ccc(C#Cc4cc(NC(=O)Nc5cc(F)ncc5CO)ccn4)cc3)CC2)C(C)(C)C)cc1 [I-501]"
observed_property = "Dmax"
result = "< 50%"


Now for another entry.
Entry under test: Cc1ncsc1-c1ccc(CNC(=O)[C@@H]2C[C@@H](O)CN2C(=O)[C@@H](NC(=O)N2CCN(C(=O)c3cnc(N4C5CCC4CN(c4cc(-c6ccccc6O)nnc4N)C5)nc3)CC2)C(C)(C)C)cc1 [I-343] . Its Dmax was < 50%
